Tested on: NCI-H2126
Assay: relative viability (nuclei count vs DMSO), 5 days (fraction); higher = more cells survive
Conditions: first compound 0.3162 µM
metric: relative viability
Give bare numbers.

Past entries and their recorded results:
- molecule: "CC(C)Oc1cc(Nc2nc(N[C@@H](C)c3ccc(F)cn3)ncc2Cl)n[nH]1 [AZ23] + Cc1nc(NC(=O)N2CCC[C@H]2C(N)=O)sc1-c1ccnc(C(C)(C)C(F)(F)F)c1 [Alpelisib] (partner 2 µM)"
  observed: 0.769
- molecule: "CC(C)Oc1cc(Nc2nc(N[C@@H](C)c3ccc(F)cn3)ncc2Cl)n[nH]1 [AZ23] + CS(=O)(=O)N1CCN(Cc2cc3nc(-c4cccc5[nH]ncc45)nc(N4CCOCC4)c3s2)CC1 [Pictilisib] (partner 1 µM)"
  observed: 0.452
- molecule: "CC(C)Oc1cc(Nc2nc(N[C@@H](C)c3ccc(F)cn3)ncc2Cl)n[nH]1 [AZ23] + COc1cc2c(Oc3ccc(NC(=O)C4(C(=O)Nc5ccc(F)cc5)CC4)cc3F)ccnc2cc1OCCCN1CCOCC1 [Foretinib] (partner 0.25 µM)"
  observed: 1.19
- molecule: "CC(C)Oc1cc(Nc2nc(N[C@@H](C)c3ccc(F)cn3)ncc2Cl)n[nH]1 [AZ23] + O=C(CCCCCCC(=O)Nc1ccccc1)NO [Vorinostat] (partner 1 µM)"
  observed: 0.616
- molecule: "CC(C)Oc1cc(Nc2nc(N[C@@H](C)c3ccc(F)cn3)ncc2Cl)n[nH]1 [AZ23] + CC1(C)CCC(c2ccc(Cl)cc2)=C(CN2CCN(c3ccc(C(=O)NS(=O)(=O)c4ccc(N[C@H](CCN5CCOCC5)CSc5ccccc5)c(S(=O)(=O)C(F)(F)F)c4)cc3)CC2)C1 [Navitoclax] (partner 0.5 µM)"
  observed: 0.774
- molecule: "CC(C)Oc1cc(Nc2nc(N[C@@H](C)c3ccc(F)cn3)ncc2Cl)n[nH]1 [AZ23] + CC(=O)c1c(C)c2cnc(Nc3ccc(N4CCNCC4)cn3)nc2n(C2CCCC2)c1=O [Palbociclib] (partner 0.5 µM)"
  observed: 0.342

Reported relative viability ( CC(C)Oc1cc(Nc2nc(N[C@@H](C)c3ccc(F)cn3)ncc2Cl)n[nH]1 [AZ23] + CC(=O)Nc1cccc(-n2c(=O)n(C3CC3)c(=O)c3c(Nc4ccc(I)cc4F)n(C)c(=O)c(C)c32)c1 [Trametinib] (partner 0.02 µM) ) = 0.532

###

System: SK-LU-1
Assay: relative viability (nuclei count vs DMSO), 5 days (fraction); higher = more cells survive
Conditions: first compound 0.04 µM
metric: relative viability

Past entries and their recorded results:
- compound: "Clc1ccc(Nc2nnc(Cc3ccncc3)c3ccccc23)cc1 [Vatalanib] + Cc1cc(Nc2cc(N3CCN(C)CC3)nc(Sc3ccc(NC(=O)C4CC4)cc3)n2)n[nH]1 [Tozasertib] (partner 0.1 µM)"
  relative viability: 0.374
- compound: "Clc1ccc(Nc2nnc(Cc3ccncc3)c3ccccc23)cc1 [Vatalanib] + Cc1nc(Nc2ncc(C(=O)Nc3c(C)cccc3Cl)s2)cc(N2CCN(CCO)CC2)n1 [Dasatinib] (partner 0.075 µM)"
  relative viability: 0.182
- compound: "C[C@@H]1CN(CC(=O)Nc2ccc3c(c2)Cc2cccc(-c4cc(=O)cc(N5CCOCC5)o4)c2S3)C[C@H](C)O1 + CS(=O)(=O)CCNCc1ccc(-c2ccc3ncnc(Nc4ccc(OCc5cccc(F)c5)c(Cl)c4)c3c2)o1 [Lapatinib] (partner 2 µM)"
  relative viability: 0.869

Shifting focus to the compound that follows.
Reported relative viability ( Clc1ccc(Nc2nnc(Cc3ccncc3)c3ccccc23)cc1 [Vatalanib] + C[C@]1(O)C[C@@H](c2nc(-c3ccc4ccc(-c5ccccc5)nc4c3)c3c(N)nccn32)C1 [Linsitinib] (partner 1 µM) ) = 1.45
